Data credit: patent EP0908457B1

# Tested on: Cyperus serotinus, Rottb.
# Method: Preemergence weed control under flooded paddy conditions, CYPSE (Flatsedge); note: meaning of each grade not given here
# Assay type: in vivo
# Run conditions: Rate 0.0320 kg/ha, preemergence, rated three to four weeks after treatment
Recorded metric: herbicidal effect rating, CYPSE

# herbicidal effect rating, CYPSE (compound: CC(C#N)c1nsc2ccc(-n3c(=O)cc(C(F)(F)F)n(C)c3=O)cc12 (stereo not drawn) ) is 8.5

# herbicidal effect rating, CYPSE (compound: Cn1c(C(F)(F)F)cc(=O)n(-c2ccc3snc(COCc4ccc(Cl)cc4Cl)c3c2)c1=O ) is 0.0

# herbicidal effect rating, CYPSE (compound: Cc1ccc(OC(C)C(=O)NS(C)(=O)=O)c(-c2nsc3ccc(-n4c(=O)cc(C(F)(F)F)n(C)c4=O)cc23)c1 (stereo not drawn) ) is 0.0

# herbicidal effect rating, CYPSE (compound: Cc1nsc2cc(F)c(-n3c(=O)cc(C(F)(F)F)n(C)c3=O)cc12 ) is 8.0

# herbicidal effect rating, CYPSE (compound: Cc1ccc(OC(C)C(=O)NS(=O)(=O)C(C)C)c(-c2nsc3ccc(-n4c(=O)cc(C(F)(F)F)n(C)c4=O)cc23)c1 (stereo not drawn) ) is 0.0

# herbicidal effect rating, CYPSE (compound: Cn1c(C(F)(F)F)cc(=O)n(-c2ccc3snc(COC(=O)Nc4ccccc4)c3c2)c1=O ) is 0.0

# herbicidal effect rating, CYPSE (compound: Cn1c(C(F)(F)F)cc(=O)n(-c2ccc3snc(COCc4cccc([N+](=O)[O-])c4)c3c2)c1=O ) is 0.0

# herbicidal effect rating, CYPSE (compound: Cn1c(C(F)(F)F)cc(=O)n(-c2ccc3snc(C(C#N)=Cc4ccc(O)cc4)c3c2)c1=O ) is 0.0

# herbicidal effect rating, CYPSE (compound: Cn1c(C(F)(F)F)cc(=O)n(-c2ccc3snc(C(C#N)=Cc4cc5ccccc5[nH]4)c3c2)c1=O ) is 0.0

# herbicidal effect rating, CYPSE (compound: CCSCCOC(=O)c1nsc2ccc(-n3c(=O)cc(C(F)(F)F)n(C)c3=O)cc12 ) is 6.0

# herbicidal effect rating, CYPSE (compound: Cn1c(C(F)(F)F)cc(=O)n(-c2cc3c(C(Br)Br)nsc3cc2F)c1=O ) is 1.0

# herbicidal effect rating, CYPSE (compound: CCCS(=O)(=O)NC(=O)C(C)Oc1ccc(C)cc1-c1nsc2ccc(-n3c(=O)cc(C(F)(F)F)n(C)c3=O)cc12 (stereo not drawn) ) is 0.0

# herbicidal effect rating, CYPSE (compound: Cn1c(C(F)(F)F)cc(=O)n(-c2ccc3snc(C(=O)NOCc4ccccc4)c3c2)c1=O ) is 0.0

# herbicidal effect rating, CYPSE (compound: Cn1c(C(F)(F)F)cc(=O)n(-c2ccc3snc(C[S+]([O-])c4ccccc4)c3c2)c1=O (stereo not drawn) ) is 0.0

# herbicidal effect rating, CYPSE (compound: CN(O)C(=O)c1nsc2ccc(-n3c(=O)cc(C(F)(F)F)n(C)c3=O)cc12 ) is 0.0

# herbicidal effect rating, CYPSE (compound: Cn1c(C(F)(F)F)cc(=O)n(-c2ccc3snc(C(C#N)(Cc4ccccc4)Cc4ccccc4)c3c2)c1=O ) is 0.0

# herbicidal effect rating, CYPSE (compound: Cn1c(C(F)(F)F)cc(=O)n(-c2cc3c(CBr)nsc3cc2F)c1=O ) is 3.0

# herbicidal effect rating, CYPSE (compound: CC#CCOC(=O)c1nsc2ccc(-n3c(=O)cc(C(F)(F)F)n(C)c3=O)cc12 ) is 7.0

# herbicidal effect rating, CYPSE (compound: C#CCOC(=O)COc1ccc(OC)cc1-c1nsc2ccc(-n3c(=O)cc(C(F)(F)F)n(C)c3=O)cc12 ) is 4.0

# herbicidal effect rating, CYPSE (compound: Cn1c(C(F)(F)F)cc(=O)n(-c2ccc3snc(COC(=O)c4ccccc4)c3c2)c1=O ) is 3.0

# herbicidal effect rating, CYPSE (compound: CC(c1nsc2ccc(-n3c(=O)cc(C(F)(F)F)n(C)c3=O)cc12)S(C)(=O)=O (stereo not drawn) ) is 0.0

# herbicidal effect rating, CYPSE (compound: Cn1c(C(F)(F)F)cc(=O)n(-c2ccc3snc(C(C#N)=Cc4ccco4)c3c2)c1=O ) is 0.0

# herbicidal effect rating, CYPSE (compound: Cn1c(C(F)(F)F)cc(=O)n(-c2ccc3snc(/C=C/CBr)c3c2)c1=O ) is 0.0

# herbicidal effect rating, CYPSE (compound: CON(C)C(=O)COc1ccccc1-c1nsc2ccc(-n3c(=O)cc(C(F)(F)F)n(C)c3=O)cc12 ) is 8.0

* * *

For each of the compounds below, state its MOOVA herbicidal rating.
# Tested on: Monochoria vaginalis, Presl.
# Method: Preemergence weed control under flooded paddy conditions, MOOVA (Monochoria)
# Format: in vivo
# Run conditions: 0.0320 kg/ha; preemergence, flooded paddy; rated three to four weeks after treatment
Please give the numeric answer without any surrounding text.

The compound Cn1c(C(F)(F)F)cc(=O)n(-c2ccc3snc(C(C)(C)C(=O)OCc4ccco4)c3c2)c1=O , tested on Monochoria vaginalis, Presl., showed MOOVA herbicidal rating of 7.0

The compound Cn1c(C(F)(F)F)cc(=O)n(-c2ccc3snc(C(C)(C)C(=O)OCc4ccccn4)c3c2)c1=O , tested on Monochoria vaginalis, Presl., showed MOOVA herbicidal rating of 6.0

The compound COC(CCOc1ccc(C)cc1-c1nsc2ccc(-n3c(=O)cc(C(F)(F)F)n(C)c3=O)cc12)OC , tested on Monochoria vaginalis, Presl., showed MOOVA herbicidal rating of 7.0

The compound COCC(=O)OCc1nsc2ccc(-n3c(=O)cc(C(F)(F)F)n(C)c3=O)cc12 , tested on Monochoria vaginalis, Presl., showed MOOVA herbicidal rating of 7.0

The compound Cn1c(C(F)(F)F)cc(=O)n(-c2ccc3snc(COC(=O)c4ccc(Cl)nc4)c3c2)c1=O , tested on Monochoria vaginalis, Presl., showed MOOVA herbicidal rating of 6.0

The compound COC(=O)C(C)Oc1cc(Cl)c(C)cc1-c1nsc2ccc(-n3c(=O)cc(C(F)(F)F)n(C)c3=O)cc12 (stereo not drawn) , tested on Monochoria vaginalis, Presl., showed MOOVA herbicidal rating of 6.0

* * *

# System: Cyperus iria
# Method: Preemergence weed control under flooded paddy conditions, CYPIR (Rice Flatsedge); note: meaning of each grade not given here
# Format: in vivo
# Run conditions: Rate 0.1250 kg/ha; preemergence, flooded paddy; rated three to four weeks after treatment
For each of the compounds below, state its herbicidal effect rating, CYPIR.

# herbicidal effect rating, CYPIR (compound: CCCCCCCOC(=O)c1nsc2ccc(-n3c(=O)cc(C(F)(F)F)n(C)c3=O)cc12 ) is 7.0

# herbicidal effect rating, CYPIR (compound: Cn1c(C(F)(F)F)cc(=O)n(-c2ccc3snc(C(C#N)=Cc4cnc[nH]4)c3c2)c1=O ) is 2.0

# herbicidal effect rating, CYPIR (compound: CCC(C)S(=O)(=O)NC(=O)c1nsc2ccc(-n3c(=O)cc(C(F)(F)F)n(C)c3=O)cc12 (stereo not drawn) ) is 0.0

# herbicidal effect rating, CYPIR (compound: Cn1c(C(F)(F)F)cc(=O)n(-c2ccc3snc(COC(=O)NCc4ccccc4)c3c2)c1=O ) is 7.0

# herbicidal effect rating, CYPIR (compound: COCCOCCOC(=O)c1nsc2ccc(-n3c(=O)cc(C(F)(F)F)n(C)c3=O)cc12 ) is 7.0

# herbicidal effect rating, CYPIR (compound: Cc1ccc(OC(C)C(=O)NS(C)(=O)=O)c(-c2nsc3ccc(-n4c(=O)cc(C(F)(F)F)n(C)c4=O)cc23)c1 (stereo not drawn) ) is 2.0

# herbicidal effect rating, CYPIR (compound: CCS(=O)(=O)NC(=O)C(C)Oc1ccc(C)cc1-c1nsc2ccc(-n3c(=O)cc(C(F)(F)F)n(C)c3=O)cc12 (stereo not drawn) ) is 3.0

# herbicidal effect rating, CYPIR (compound: Cn1c(C(F)(F)F)cc(=O)n(-c2ccc3snc(COC(=O)Cc4ccc(Cl)cc4Cl)c3c2)c1=O ) is 5.0

# herbicidal effect rating, CYPIR (compound: CC(=O)OCCOC(=O)COc1ccc(C)cc1-c1nsc2ccc(-n3c(=O)cc(C(F)(F)F)n(C)c3=O)cc12 ) is 5.0

# herbicidal effect rating, CYPIR (compound: COCc1nsc2cc(F)c(-n3c(=O)cc(C(F)(F)F)n(C)c3=O)cc12 ) is 9.0

# herbicidal effect rating, CYPIR (compound: Cn1c(C(F)(F)F)cc(=O)n(-c2ccc3snc(COC(=O)CCl)c3c2)c1=O ) is 9.0

# herbicidal effect rating, CYPIR (compound: CCCCS(=O)(=O)OCc1nsc2ccc(-n3c(=O)cc(C(F)(F)F)n(C)c3=O)cc12 ) is 8.0

# herbicidal effect rating, CYPIR (compound: Cn1c(C(F)(F)F)cc(=O)n(-c2ccc3snc(C(C#N)=Cc4ccco4)c3c2)c1=O ) is 5.0

# herbicidal effect rating, CYPIR (compound: Cn1c(C(F)(F)F)cc(=O)n(-c2ccc3snc(COC(=O)Cc4ccccc4Cl)c3c2)c1=O ) is 3.0

# herbicidal effect rating, CYPIR (compound: Cn1c(C(F)(F)F)cc(=O)n(-c2cc3c(CBr)nsc3cc2F)c1=O ) is 9.0
